Reported IC50 values for a set of sequences
target or system: DRB5*0101 (Homo sapiens, UniProt P01903+Q30154)
procedure details: biochemical
assay conditions: Binding affinity DRB5 *0101
No end group written: not given here.
observable: IC50 (µM)

- seq text: "DSEIAYKYAQLADTN [Peptide 89.0012]"
  observable: "IC50"
  comparison sign: "="
  data value: 19.6
- seq text: "PMCMMIEPPKLRSTA [Peptide 90.0034]"
  observable: "IC50"
  comparison sign: "="
  data value: 0.271
- seq text: "NTEVETQQMVQQVES [Peptide 89.0059]"
  observable: "IC50"
  comparison sign: ">"
  data value: 20
- seq text: "SNEVSSPEIIRQHLA [Peptide 1601.06]"
  observable: "IC50"
  comparison sign: ">"
  data value: 20
- seq text: "TPEWIQRLTIIQHGI [Peptide 89.0030]"
  observable: "IC50"
  comparison sign: "="
  data value: 5.89
- seq text: "HQVVPPMAVSKAKAC [Peptide 90.0012]"
  observable: "IC50"
  comparison sign: "="
  data value: 5.79
- seq text: "ALSVSKAKALQAIEL [Peptide 89.0170]"
  observable: "IC50"
  comparison sign: ">"
  data value: 20

Reference source for all entries: patent US9340577B2
